biological target: purified, recombinant, 80% truncated DENV-2 S1 E protein (Dengue virus type 2); construct: Purified, recombinant, 80% truncated DENV-2 S1 E protein was obtained from Hawaii Biotechnology; purchased Hawaii Biotechnology (Honolulu, HI); experiment: biochemical; format: binding, DENV-2 strain S1
Where no end group is shown, it is not given here.
Please provide measured pKd for the entries that follow.
Please keep in mind that pKd is minus log10 of the molar concentration; only the number is needed.

[in] Give purified, recombinant, 80% truncated DENV-2 S1 E protein (Dengue virus type 2) pKd for RWMVWRHWFHRLRLPYNPGKNKQNQQWP [DN57opt]
[out] 5.92

[in] Give purified, recombinant, 80% truncated DENV-2 S1 E protein (Dengue virus type 2) pKd for FWFTLIKTQAKQPARYRRFC [1OAN1]
[out] 6.35
